system: Recombinant human thyroid hormone receptor α (Homo sapiens, UniProt P10827)
Sequence (P10827 1-410 isoform P10827-2): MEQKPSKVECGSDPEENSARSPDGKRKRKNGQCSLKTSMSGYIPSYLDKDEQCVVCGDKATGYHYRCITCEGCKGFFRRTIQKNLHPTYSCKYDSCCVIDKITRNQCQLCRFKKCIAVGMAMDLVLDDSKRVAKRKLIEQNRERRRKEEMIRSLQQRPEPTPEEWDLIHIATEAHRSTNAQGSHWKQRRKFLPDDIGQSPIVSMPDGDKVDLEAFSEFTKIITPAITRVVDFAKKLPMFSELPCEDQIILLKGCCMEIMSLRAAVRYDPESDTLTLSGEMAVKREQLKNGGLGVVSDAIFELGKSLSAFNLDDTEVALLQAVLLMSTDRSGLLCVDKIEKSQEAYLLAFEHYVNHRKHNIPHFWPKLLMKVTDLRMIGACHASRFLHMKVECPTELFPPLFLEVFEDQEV
method_notes: Receptor binding assay ([125I]-T3 displacement), α receptor
pKi: −log10 of the molar value.

[
  {
    "compound": "CCOC(=O)C(=O)Nc1cc(C)c(Oc2ccc(O)c(C(C)C)c2OC)c2c1CCC2 [Compound 31]",
    "pKi": 6.43
  },
  {
    "compound": "O=C(O)CC(=O)Nc1cc(Br)c(Oc2ccc(O)c3c2CCCC3)c2c1CCC2 [Compound 68]",
    "pKi": 6.58
  },
  {
    "compound": "Cc1cc(NC(=O)CC(=O)O)c2c(c1Oc1ccc(O)c(C(C)C)c1)CCC2 [Compound 61]",
    "pKi": 6.76
  },
  {
    "compound": "CCc1c(O)ccc(Oc2c(C)cc(NC(=O)CC(=O)O)c3c2CCC3)c1OCc1cccnc1 [Compound 80]",
    "pKi": 5.46
  },
  {
    "compound": "Cc1cc(NC(=O)C(=O)O)c2c(c1Oc1ccc(O)c(CCc3ccc(O)c(F)c3)c1)CCC2 [Compound 97]",
    "pKi": 6.83
  },
  {
    "compound": "CC(C)c1cc(Oc2c(Br)cc(NC(=O)CC(=O)O)c3c2CCC3)ccc1O [Compound 67]",
    "pKi": 7.16
  }
]
